- tested-system: T1, similar peptide SP-05-0001, source protein not stated peptide on HLA-A*02:01 (human)
- T1 peptide: HIMEHLEGV
- method-notes: killing
measurement-label: binding result

{"binder": "TCR-7 (TCR, V domains shown) Valpha: QTVTQSQPEMSVQEAETVTLSCTYDTSESDYYLFWYKQPPSRQMILVIRQEAYKQQNATENRFSVNFQKAAKSFSLKISDSQLGDAAMYFCTFRYGGATNKLIFGTGTLLAVQP Vbeta: GVIQSPRHLIKEKRETATLKCYPIPRHDTVYWYQQGPGQDPQFLISFYEKMQSDKGSIPDRFSAQQFSDYHSELNMSSLELGDSALYFCASRGGWAETPDTQYFGPGTRLTVL", "value": "no recognition"}
{"binder": "TCR-14 (TCR, V domains shown) Valpha: QKITQTQPGMFVQEKEAVTLDCTYDTSDQSYGLFWYKQPSSGEMIFLIYQGSYDEQNATEGRYSLNFQKARKSANLVISASQLGDSAMYFCAINGLPGSARQLTFGSGTQLTVLP Vbeta: GVAQSPRYKIIEKRQSVAFWCNPISGHATLYWYQQILGQGPKLLIQFQNNGVVDDSQLPKDRFSAERLKGVDSTLKIQPAKLEDSAVYLCASSRFVATGTSPLHFGNGTRLTVT", "value": "no recognition"}
{"binder": "TCR-5 (TCR, V domains shown) Valpha: QQLNQSPQSMFIQEGEDVSMNCTSSSIFNTWLWYKQDPGEGPVLLIALYKAGELTSNGRLTAQFGITRKDSFLNISASIPSDVGIYFCAGGYNYGQNFVFGPGTRLSVLP Vbeta: GVTQTPKHLITATGQRVTLRCSPRSGDLSVYWYQQSLDQGLQFLIQYYNGEERAKGNILERFSAQQFPDLHSELNLSSLELGDSALYFCASSAGLAGGYEQYFGPGTRLTVT", "value": "no recognition"}
